Test system: Ba/F3 KIF5B-RET^G810C
Assay Overview: Proliferation of RET mutant cells (Cell Titer Glo)
Assay type: cell-based
Assay Setup: Mus musculus, BaF3, 72 h, 3 days, read-out: Inhibition IC50 (nM) of the compounds on the proliferation of the cell
Experimental: Experimental method: Ba/F3 cells (Ba/F3 KIF5B-RET^G810R, Ba/F3 KIF5B-RET^G810S, Ba/F3 KIFSB-RET^G810C) in logarithmic phase were respectively collected and inoculated into 96-well plates, with 2000 cells/95 µl/well. […] In addition, negative control wells (without the test compound) and blank control wells (without cells) were set. […]
Attribute Measured: IC50

>>> val("CO[C@]1(C(=O)N[C@@H](C)c2ccc(-n3cc(F)cn3)nc2)CC[C@H](c2nc(C)cc(Nc3cc(C)[nH]n3)n2)CC1 [BLU-667, reference compound]")
"146 nM"
>>> val("COc1ccc(CN2C3CC2CN(c2ccc(-c4cc(OCC(C)(C)O)cn5ncc(C#N)c45)cn2)C3)cn1 [LOXO-292, reference compound]")
"477 nM"
>>> val("Cc1cc(Nc2cc(C)[nH]n2)nc(-c2ccc(N3CC4CC(C3)N4Cc3ccc(-n4cc(F)cn4)nc3)nc2)n1")
"65.3 nM"

# credit: patent EP4714449A1
